Listed here: items and their measured TGI.
System: COLO 205 colon
Assay explanation: NCI tumour cell line growth inhibition, 48 h

Some entries whose results are on file:
CNc1ccc(Cl)cc1C(=O)N1CCC[C@H]1CO: > 100 µM
COC(=O)C(Br)(C(=O)OC)C(Br)C(Br)C(Br)c1ccccc1 (centres undefined): 3.56 µM
C=C(C)C1Cc2cc(C(C)=O)ccc2O1 (centres undefined): > 100 µM
COc1ccc(-n2nc(C(=O)c3ccccc3)c3nn4c(=O)cc(-c5ccccc5)nc4nc32)cc1: > 100 µM
Cn1c(=O)c2[nH]c(CCS)nc2n(C)c1=O: > 100 µM

Field request: TGI | item: `COc1ccc(-c2n[nH]c3nc4ccccc4n3c2=O)cc1`
> 100 µM

Field request: TGI | item: `FC(F)(F)c1nc2c(ccc3[nH]c4c(-c5ccccc5)nccc4c32)[nH]1`
> 100 µM

Field request: TGI | item: `CN(CCc1ccccn1)c1ccc2c(c1)Cc1ccccc1-2`
41.4 µM

Field request: TGI | item: `COc1cc(/C=C/C(=O)N[C@@H]2C(=O)N3[C@@H]2SC(C)(C)[C@@H]3C(=O)O)ccc1O`
> 100 µM

All values here come from PubChem BioAssay (NCI).
